Sourced from PubChem BioAssay (NCATS)

Target: Luciferin 4-monooxygenase (Photinus pyralis) (UniProt P08659)
Sequence (P08659 whole entry, looked up): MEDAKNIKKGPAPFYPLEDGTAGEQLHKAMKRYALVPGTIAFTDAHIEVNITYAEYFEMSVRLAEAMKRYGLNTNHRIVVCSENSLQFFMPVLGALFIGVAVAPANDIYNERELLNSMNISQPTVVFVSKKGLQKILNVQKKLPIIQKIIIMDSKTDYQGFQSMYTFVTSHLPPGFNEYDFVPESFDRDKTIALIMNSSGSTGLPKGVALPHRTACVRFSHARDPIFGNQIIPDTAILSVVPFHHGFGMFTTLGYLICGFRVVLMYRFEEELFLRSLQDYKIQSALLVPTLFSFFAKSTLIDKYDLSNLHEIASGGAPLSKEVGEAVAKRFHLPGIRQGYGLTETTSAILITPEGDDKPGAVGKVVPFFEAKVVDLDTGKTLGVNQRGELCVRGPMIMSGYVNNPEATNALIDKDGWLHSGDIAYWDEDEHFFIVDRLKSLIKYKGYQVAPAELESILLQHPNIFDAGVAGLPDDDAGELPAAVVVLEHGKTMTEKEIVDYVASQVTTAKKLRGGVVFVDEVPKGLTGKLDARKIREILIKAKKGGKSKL
Assay: Biochemical firefly luciferase enzyme assay for NPC (AID 624030); note: nearly all actives have a fitted effect of over 70% in size
Conditions: purified P. pyralis luciferase, luminescence, 5 min; series mostly up to 58.6 µM
Inconclusive results are not listed. Activity calls are given as the source filed them. Calls come from the whole dose curve; as a rule, active = well fitted inhibition curve with a large enough effect; inconclusive = small, poorly fitted or top-dose-only effect; inactive = flat fitted curve, though single readings scatter.
Allowed answers: active, inactive

Check out these entries, answers already filled in.
[
  {
    "compound": "Clc1ccccc1-c1nc(-c2ccncc2)no1",
    "target.entity": "Luciferin 4-monooxygenase (Photinus pyralis) (UniProt P08659)",
    "group.label": "active"
  },
  {
    "compound": "Nc1ccc([N+](=O)[O-])cc1O",
    "target.entity": "Luciferin 4-monooxygenase (Photinus pyralis) (UniProt P08659)",
    "group.label": "inactive"
  },
  {
    "compound": "COc1cc2c3cc1Oc1cc(ccc1O)C[C@@H]1c4c(cc(OC)c(O)c4Oc4ccc(cc4)C[C@@H]3N(C)CC2)CC[N+]1(C)C",
    "target.entity": "Luciferin 4-monooxygenase (Photinus pyralis) (UniProt P08659)",
    "group.label": "inactive"
  }
]

Now look at this one.
Short answer needed: outcome of this test for COC(=O)C1=C(C)NC(C)=C(C(=O)OCC(C)=O)C1c1ccccc1[N+](=O)[O-] (stereo not given) ?
inactive
